Target: T1, Human CTGF with a human IgG1 Fc Tag (Homo sapiens, UniProt P29279, H83D)
T1 construct: purchased Creative Biomart
T1 sequence (P29279 with tags, fused parts or gaps H83D): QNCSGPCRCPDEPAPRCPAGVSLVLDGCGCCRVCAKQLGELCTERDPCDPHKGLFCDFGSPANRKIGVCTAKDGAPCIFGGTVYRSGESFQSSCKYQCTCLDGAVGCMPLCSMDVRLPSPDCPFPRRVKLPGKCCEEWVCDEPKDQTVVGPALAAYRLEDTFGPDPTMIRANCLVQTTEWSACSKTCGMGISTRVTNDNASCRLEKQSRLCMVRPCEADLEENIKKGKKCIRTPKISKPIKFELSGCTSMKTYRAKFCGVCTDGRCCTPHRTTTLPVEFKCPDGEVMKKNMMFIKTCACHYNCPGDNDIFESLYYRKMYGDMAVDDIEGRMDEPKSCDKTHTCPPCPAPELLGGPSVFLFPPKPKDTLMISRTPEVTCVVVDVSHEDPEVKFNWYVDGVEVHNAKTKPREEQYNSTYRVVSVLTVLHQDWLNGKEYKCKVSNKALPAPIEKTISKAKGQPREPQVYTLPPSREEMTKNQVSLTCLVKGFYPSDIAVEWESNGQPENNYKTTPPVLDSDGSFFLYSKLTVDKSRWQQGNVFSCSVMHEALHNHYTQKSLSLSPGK
Test: SPR epitope analysis (simultaneous binding)
Conditions: SPR, mixed and injected simultaneously at 750 nM or 1000 nM
parameter_measured: Simultaneous binding with SEQ ID NO: 60 and 61 (control antibody)

{"columns": ["molecule", "result"],
 "data": [
  ["SEQ ID NO: 29: parent CTGF-binding hNGAL lipocalin mutein (protein, lipocalin mutein) QDSTSDLIPAPPLSKVPLQQNFQDNQFHGKWYVVGWAGNIKLREDKDPFKMSATIYELKEDKSYNVTEVVFEQKKCHYIIKTFVPGSQPGEFTLGDIKSPPGETSSLVRVVSTNYNQHAMVFFKKVFQNREFFWITLYGRTKELTSELKENFIRFSKSLGLPENHIVFPVPIDQCIDG", "yes"],
  ["SEQ ID NO: 7: parent CTGF-binding hNGAL lipocalin mutein (protein, lipocalin mutein) QDSTSDLIPAPPLSKVPLQQNFQDNQFHGKWYVVGLAGNYGLRTDKRPSKMFATIYELKEDKSYDVTSVRFEQERCHYTIRTFVPGSQPGEFTTGSIKSRPGQTSSLVRVVSTNYNQHAMVFFKSVIQNREYFAITLYGRTKELTSELKENFIRFSKSLGLPENHIVFPVPIDQCIDG", "no"],
  ["SEQ ID NO: 25: parent CTGF-binding hNGAL lipocalin mutein (protein, lipocalin mutein) QDSTSDLIPAPPLSKVPLQQNFQDNQFHGKWYVVGMAGNFRLREDKDPSKMGATIYELKEDKSYNVTQVQFDDKKCLYVIETFVPGSQPGEFTLGAIKSFPGFTSQLVRVVSTNYNQHAMVFFKKVYQNREVFWITLYGRTKELTSELKENFIRFSKSLGLPENHIVFPVPIDQCIDG", "yes"],
  ["SEQ ID NO: 3: parent CTGF-binding hNGAL lipocalin mutein (protein, lipocalin mutein) QDSTSDLIPAPPLSKVPLQQNFQDNQFHGKWYVVGRAGNNRLREDKDPPKMWATIYELKEDKSYNVTHVHFMTKKCRYIIDTFVPGSQPGEFTLGAIKSGPGMTSPLVRIVSTNYNQHAMVFFKWVNQNREWFTITLYGRTKELTSELKENFIRFSKSLGLPENHIVFPVPIDQCIDG", "yes"],
  ["SEQ ID NO: 9: parent CTGF-binding hNGAL lipocalin mutein (protein, lipocalin mutein) QDSTSDLIPAPPLSKVPLQQNFQDNQFHGKWYVVGLAGNKILRIDKQPAKMFATIYELKEDKSYDVTSVRFEARSCSYTIKTFVPGSQPGEFTAGNIKSAPGQTSTLVRVVSTNYNQHAMVFFKHVSQNRETFVITLYGRTKELTSELKENFIRFSKSLGLPENHIVFPVPIDQCIDG", "no"]
]}
